Reported apparent Kd (screen) values are given for each entry in this list.
Molecular target: T1, TNFR1 (Homo sapiens, UniProt P19438)
T1 chain: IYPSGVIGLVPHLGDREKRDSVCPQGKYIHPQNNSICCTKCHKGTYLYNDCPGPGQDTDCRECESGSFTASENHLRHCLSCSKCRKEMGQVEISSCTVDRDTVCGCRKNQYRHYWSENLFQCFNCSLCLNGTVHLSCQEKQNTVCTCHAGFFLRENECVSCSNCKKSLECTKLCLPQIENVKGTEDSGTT
Experiment: yeast display SC50
Answer with a number only, understood to be in nM.

E5Y (designed binder) SMEEYVEKAAKEYEKKKKEAIEKHLEKLKAKDKEAAERFLKELEEAAKEYAKDEAKTMSEEEAKRRAKKYKEKVLLSELSEEEQKEIKEAEEKLVRTILKYVEEAAK :: 1.54
K71M (designed binder) SMEEEVEKAAKEYEKKKKEAIEKHLEKLKAKDKEAAERFLKELEEAAKEYAKDEAKTMSEEEAKRRAKKYMEKVLLSELSEEEQKEIKEAEEKLVRTILKYVEEAAK :: 3
S59A (designed binder) SMEEEVEKAAKEYEKKKKEAIEKHLEKLKAKDKEAAERFLKELEEAAKEYAKDEAKTMAEEEAKRRAKKYKEKVLLSELSEEEQKEIKEAEEKLVRTILKYVEEAAK :: 0.593

With those in mind, consider the next binder.
[Q] Quote apparent Kd (screen) reported for E103R (designed binder) SMEEEVEKAAKEYEKKKKEAIEKHLEKLKAKDKEAAERFLKELEEAAKEYAKDEAKTMSEEEAKRRAKKYKEKVLLSELSEEEQKEIKEAEEKLVRTILKYVREAAK please.
[A] 0.539

Data origin: paper PMC12416549
